TEST_DETAILS: Activity at HCMV US28 receptor assessed as receptor-mediated inositol phosphate response
Design: species or system Human betaherpesvirus 5
pEC50: −log10 of the molar value.
Kindly supply the reported pEC50 values for the records listed here.

Exam item: Param item = COc1ccc(CC2Cc3ccccc3C2N)c(OC)c1 (stereo not drawn) ; retrieve measured pEC50.
Marked response: < 4.00

Exam item: Param item = COc1ccc(CC2Cc3ccccc3C2N)cc1 (stereo not drawn) ; retrieve measured pEC50.
Marked response: < 4.00

Exam item: Param item = Clc1ccc(C2=CCN(C3c4ccccc4CC3Cc3ccc(Cl)cc3Cl)CC2)cc1 (stereo not drawn) ; retrieve measured pEC50.
Marked response: < 4.00
